System: Mo
Test: cells
Format: functional, cell-based
Details: Homo sapiens
Description: SANGER: Inhibition of human Mo-T cell growth in a cell viability assay.
pIC50: −log10 of the molar value.
result type: pIC50

Reference set (3 entries):
| compound structure string | pIC50 |
| --- | --- |
| CN1CCN(CCOc2cc(OC3CCOCC3)c3c(Nc4c(Cl)ccc5c4OCO5)ncnc3c2)CC1 | < 5.70 |
| COc1ccc(-c2ccc3c(N4CCOC[C@@H]4C)nc(N4CCOC[C@@H]4C)nc3n2)cc1CO | < 5.70 |
| Cn1cc(C2=C(c3ccc(Cl)cc3Cl)C(=O)NC2=O)c2ccccc21 | < 5.00 |

Then there is this compound:
For reference, reported pIC50 for Cn1cncc1[C@@](N)(c1ccc(Cl)cc1)c1ccc2c(c1)c(-c1cccc(Cl)c1)cc(=O)n2C stands at < 4.80

====

Tested on: TE-5;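 note: inhibition of cell growth, read out by a cell viability assay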
Assay: cells
Format: functional, cell-based, Homo sapiens
Details: te-5
Description: SANGER: Inhibition of human TE-5 cell growth in a cell viability assay.
pIC50: −log10 of the molar value.
result type: pIC50

Record Cc1cc([C@@H](C)Nc2ccccc2C(=O)O)c2nc(N3CCOCC3)cc(=O)n2c1 has TE-5 pIC50 equal to < 5.29

====

Tested on: EW-24;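 note: human EW-24 cancer cell line, growth inhibition read out via a cell viability assay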
Experiment: cells
Format: functional, cell-based
Details: Homo sapiens
Description: SANGER: Inhibition of human EW-24 cell growth in a cell viability assay.
Measured IC50 values are reported for all entries that follow.

| compound structure string | reported |
| --- | --- |
| C[C@]1(O)C[C@@H](c2nc(-c3ccc4ccc(-c5ccccc5)nc4c3)c3c(N)nccn32)C1 | > 2.56 µM |
| CCC1=C[C@@H]2CN(C1)Cc1c([nH]c3ccccc13)[C@@](C(=O)OC)(c1cc3c(cc1OC)N(C)[C@H]1[C@@](O)(C(=O)OC)[C@H](OC(C)=O)[C@]4(CC)C=CCN5CC[C@]31[C@@H]54)C2 | > 0.064 µM |

For reference, reported IC50 for CS(=O)(=O)CCNCc1ccc(-c2ccc3ncnc(Nc4ccc(OCc5cccc(F)c5)c(Cl)c4)c3c2)o1 stands at > 2 µM

====

Measured IC50 values are reported for all entries that follow.
Test system: NCI-H2029;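 note: Read-out is a viability assay on the cultured cells, and IC50 is the concentration that suppresses cell growth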
Assay: cells
Type: functional, cell-based
Details: Homo sapiens
Description: SANGER: Inhibition of human NCI-H2029 cell growth in a cell viability assay.

Reference set (3 entries):
| compound | target under test | IC50 |
| --- | --- | --- |
| C=CCNC1=C2C[C@@H](C)C[C@H](OC)[C@H](O)[C@@H](C)/C=C(\C)[C@H](OC(N)=O)[C@@H](OC)/C=C\C=C(/C)C(=O)NC(=CC1=O)C2=O [TANESPIMYCIN] | NCI-H2029 | > 1000 nM |
| O=C1N=C(NCc2cccs2)S/C1=C\c1ccc2ncccc2c1 | NCI-H2029 | > 5000 nM |
| CN(C)C/C=C/C(=O)Nc1cc2c(Nc3ccc(F)c(Cl)c3)ncnc2cc1O[C@H]1CCOC1 [AFATINIB] | NCI-H2029 | > 500 nM |

Then there is this compound:
For reference, reported IC50 for COc1ccc(C2=N[C@@H](c3ccc(Cl)cc3)[C@@H](c3ccc(Cl)cc3)N2C(=O)N2CCNC(=O)C2)c(OC(C)C)c1 [NUTLIN-3] stands at > 8000 nM

====

System: JAR;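 note: growth inhibition of human JAR cells determined with a cell viability assay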
Assay: cells
Assay type: functional, cell-based, Homo sapiens
Settings: Homo sapiens, JAR
Description: SANGER: Inhibition of human JAR cell growth in a cell viability assay.
result type: IC50

Reference set (3 entries):
| molecule | reported |
| --- | --- |
| CN(C)C/C=C/C(=O)Nc1cc2c(Nc3ccc(F)c(Cl)c3)ncnc2cc1O[C@H]1CCOC1 [AFATINIB] | > 500 nM |
| CN(Cc1cnc2nc(N)nc(N)c2n1)c1ccc(C(=O)N[C@@H](CCC(=O)O)C(=O)O)cc1 [METHOTREXATE] | 188 nM |
| O=C(NOCC1CC1)c1ccc(F)c(F)c1Nc1ccc(I)cc1Cl [CI-1040] | > 10000 nM |

Then there is this molecule:
For reference, reported IC50 for C=CCc1cccc(/C=N/NC(=O)CN2CCN(Cc3ccccc3)CC2)c1O [PAC-1] stands at > 2560 nM
